src = patent EP0823908B1

assayed.target: mouse PDGF-β receptor tyrosine kinase (Mus musculus, UniProt P05622)
Construct: amplify a fragment of DNA that codes for the intracellular tyrosine kinase domain; made in house; host or cells: SF9 insect cells (baculovirus)
Sequence (P05622 599-961 limits assumed): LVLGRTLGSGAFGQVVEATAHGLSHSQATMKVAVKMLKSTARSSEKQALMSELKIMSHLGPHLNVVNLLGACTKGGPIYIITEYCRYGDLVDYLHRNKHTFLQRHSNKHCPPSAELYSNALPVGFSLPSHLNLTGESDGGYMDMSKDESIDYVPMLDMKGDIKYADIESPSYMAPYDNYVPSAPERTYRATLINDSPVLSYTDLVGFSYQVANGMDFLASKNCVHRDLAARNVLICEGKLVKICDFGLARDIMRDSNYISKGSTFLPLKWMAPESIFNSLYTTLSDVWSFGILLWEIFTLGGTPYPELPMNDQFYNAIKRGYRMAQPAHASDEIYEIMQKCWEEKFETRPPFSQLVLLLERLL
assay.name: PDGF receptor tyrosine kinase assay (32P incorporation into glutamate-tyrosine co-polymer)
Assay type: biochemical
conditions: read-out: PDGFr-TK IC50
pIC50: −log10 of the molar value.
attribute.measured: pIC50

A selection of reference data follows.
test.smiles	readout.number
Cn1c(=O)c(-c2c(Cl)cccc2Cl)cc2cnc(Nc3cccc(Br)c3)nc21	5.74
Cn1c(=O)c(-c2c(Cl)cccc2Cl)cc2cnc(NCCCCCC(=O)OC(C)(C)C)nc21	4.58
COC(=O)Cc1ccc(Nc2ncc3cc(-c4c(Cl)cccc4Cl)c(=O)n(C)c3n2)cc1	6.41
Nc1ncc2cc(-c3c(Cl)cccc3Cl)c(=O)n(Cc3c(Cl)cccc3Cl)c2n1	5.50

1. COc1ccc(Nc2ncc3cc(-c4c(Cl)cccc4Cl)c(=O)n(C)c3n2)cc1
2. CN(C)CCCn1c(=O)c(-c2c(Cl)cccc2Cl)cc2cnc(N)nc21
Given 1 and given 2 , which shows the smaller recorded pIC50? Kindly give the label for the entry you pick. 2
(2: 5.56, 1: 6.26)

I. CNc1ncc2cc(-c3c(Cl)cccc3Cl)c(=O)n(C)c2n1
II. COc1ccc(Nc2ncc3cc(-c4c(Cl)cccc4Cl)c(=O)n(C)c3n2)cn1
III. Cn1c(=O)c(-c2c(Cl)cccc2Cl)cc2cnc(NC(=O)CCC(=O)O)nc21
Give the ascending ranking of the items by reported pIC50. // rank by listing labels in the order requested III, I, II

1. Cc1ccccc1-c1cc2cnc(N)nc2n(C)c1=N
2. Cn1c(=O)c(-c2c(Cl)cccc2Cl)cc2cnc(Nc3ccc4c(c3)OCO4)nc21
3. CCn1c(=N)c(-c2cccs2)cc2cnc(Nc3ccccc3)nc21
4. Nc1ncc2cc(-c3c(Cl)cccc3Cl)c(=O)n(Cc3cccc(Br)c3)c2n1
5. CCNc1ncc2cc(-c3c(Cl)cccc3Cl)c(=O)n(C)c2n1
Give the ascending ranking of the items by reported pIC50. // rank by listing labels in the order requested 1, 4, 5, 2, 3

1. CCn1c(=O)c(-c2c(Cl)cccc2Cl)cc2cnc(N)nc21
2. Cn1c(=O)c(-c2c(Cl)cccc2Cl)cc2cnc(Nc3cccc(O)c3)nc21
3. CCOC(=O)c1ccc(Nc2ncc3cc(-c4c(Cl)cccc4Cl)c(=O)n(C)c3n2)cc1
Hey, quick one: sort these by pIC50, largest value first please. // rank by listing labels in the order requested 2, 1, 3
(2: 6.46, 1: 6.01, 3: 4.42)
